# assayRemarks: Aqueous solubility
# Type: physicochemical
# protocolConditions: aqueous medium (not specified further)
parameterMeasured: solubility (µg/mL)
Answers are plain numbers, in µg/mL.

Input: Endpoint output: solubility of C[C@H](NC(=O)c1nc(C#N)cnc1NCc1ccc(-c2cnc3[nH]nc(N)c3n2)cc1)c1ccc(F)c(F)c1 (stereo in doubt) [Compound 1] . Value?
Output: 0.1

###

# assayRemarks: Aqueous solubility
# Format: physicochemical
# protocolConditions: aqueous buffer; over the physiological pH range
parameterMeasured: solubility

Input: Endpoint output: solubility of C[C@H](NC(=O)c1nc(C#N)cnc1NCc1ccc(-c2cnc3[nH]nc(N)c3n2)cc1)c1ccc(F)c(F)c1 (stereo in doubt) . Value?
Output: < 0.1 µg/mL

Where do these numbers come from? They come from patent US20200390764A1.
